B1: library; a variant is named by its letters at X, in order (parent)
chain: MNIQIGELAKRTACPVVTIRFYEQEGLLPPPGRSRGNFRLYGEEHVERLQFIRHCRSLDMPLSXVRTLLSYRKRPDQDCGEVXMLLDEHIRQVESRIGALLELXHHXVELREACSGARPAQSCGILQXLSXCVCXTRGTTAHXSD

variants of: B1; assay: sfGFP reporter fluorescence (15 h) (µM FITC); higher = stronger transcriptional activation; settings: library round: Round 3; ligand: 1 µM Pb
I would appreciate it if you labelled entries Criterion met when sfGFP reporter fluorescence is 0.2 or higher, otherwise Criterion not met.

INSERT INTO measurements (biopolymer_sequence, assigned_class) VALUES
  ('MNIQIGELAKRTACPVVTIRFYEQEGLLPPPGRSRGNFRLYGEEHVERLQFIRHCRSLDMPLSDVRTLLSYRKRPDQDCGEVTMLLDEHIRQVESRIGALLELKHHLVELREACSGARPAASCGILQGLSACVCPTRGTTAHLSD', 'Criterion met'),
  ('MNIQIGELAKRTACPCVTIRFYEQEGLLPPPGRSRGNFRLYGEEHVERLQFIRHCRSLDMNLSDVRTLLSYRKRPDQDCGEVNMLLDEHIRQVESRIGALLELVHHCVELREACSGARPAQSCGILQMLSDCVCDTRGTTAHPSD', 'Criterion met'),
  ('MNIQIGELAKRTACPVVTIRFYEQEGLLPPPGRSRGNFRLYGEEHVERLQFIRHCRSLDMPLSDVRTLLSYRKRPDQDCGEVTMLLDEHIRQVESRIGALLELKHHLLELREACSGARPAQSCGILQGLSMCVCPTRGTTAHPSD', 'Criterion not met'),
  ('MNIQIGELAKRTACPVVTIRFYEQEGLLPPPGRSRGNFRLYGEEHVERLQFIRHCRSLDMPLSDVRTLLSYRKRPDQDCGEVNMLLDEHIRQVESRIGALLELRHHCVELREACSGARPAQSCGILQGLSACVCATRGTTAHPSD', 'Criterion met'),
  ('MNIQIGELAKRTACPVVTIRFYEQEGLLPPPGRSRGNFRLYGEEHVERLQFIRHCRSLDMPLSDVRTLLSYRKRPDQDCGEVTMLLDEHIRQVESRIGALLELKHHLVELREACSGARPAASCGILQGLSDCVCATRGTTAHLSD', 'Criterion not met'),
  ('MNIQIGELAKRTACPVVTIRFYEQEGLLPPPGRSRGNFRLYGEEHVERLQFIRHCRSLDLPLSKVRTLLSYRKRPDQDCGEVNMLLDEHIRQVESRIGALLELVHHCVELREACSGARPAQSCGILQGLSACVCDTRGTTAHPSD', 'Criterion met'),
  ('MNIQIGELAKRTACPVVTIRFYEQEGLLPPPGRSRGNFRLYGEEHVERLQFIRHCRSLDMPLSDVRTLLSYRKRPDQDCGEVTMLLDEHIRQVESRIGALLELKHHLLELREACSGARPAQSCGILQGLSMCVCATRGTTAHPSD', 'Criterion not met'),
  ('MNIQIGELAKRTACPVVTIRFYEQEGLLPPPGRSRGNFRLYGEEHVERLQFIRHCRSLDMPLSDVRTLLSYRKRPDQDCGEVNMLLDEHIRQVESRIGALLELKHHCVELREACSGARPAQSCAILQGLSACVCDTRGTTAHYSD', 'Criterion met'),
  ('MNIQIGELAKRTACPVVTIRFYEQEGLLPPPGRSRGNFRLYGEEHVERLQFIRHCRSLDMPLSDVRTLLSYRKRPDQDCGEVTMLLDEHIRQVESRIGALLELKHHLLELREACSGARPAQSCGILQGLSDCVCPTRGTTAHRSD', 'Criterion not met'),
  ('MNIQIGELAKRTACPVVTIRFYEQEGLLPPPGRSRGNFRLYGEEHVERLQFIRHCRSLDMNLSKVRTLLSYRKRPDQDCGEVNMLLDEHIRQVESRIGALLELMHHCVELREACSGARPAQSCGILQMLSDCVCDTRGTTAHPSD', 'Criterion met'),
  ('MNIQIGELAKRTACPVVTIRFYEQEGLLPPPGRSRGNFRLYGEEHVERLQFIRHCRSLDMPLSDVRTLLSYRKRPDQDCGEVTMLLDEHIRQVESRIGALLELKHHLVELREACSGARPAASCGILQGLSACVCPTRGTTAHWSD', 'Criterion met'),
  ('MNIQIGELAKRTACPVVTIRFYEQEGLLPPPGRSRGNFRLYGEEHVERLQFIRCARSLDMPLSDVRTLLSYRKRPDQDCGEVNMLLDEHIRQVESRIGALLELKHHCVELREACSGARPAQSCGILQGLSACVCATRGTTAHPSD', 'Criterion met'),
  ('MNIQIGELAKRTACPVVTIRFYEQEGLLPPPGRSRGNFRLYGEEHVERLQFIRHCRSLDLNLSKVRTLLSYRKRPDQDCGEVNMLLDEHIRQVESRIGALLELVHHCVELREACSGARPAQSCGILQILSDCVCDTRGTTAHPSD', 'Criterion met'),
  ('MNIQIGELAKRTACPVVTIRFYEQEGLLPPPGRSRGNFRLYGEEHVERLQFIRHCRSLDLNLSKVRTLLSYRKRPDQDCGEVNMLLDEHIRQVESRIGALLELVHHEVELREACSGARPAQSCGILQGLSDCVCDTRGTTAHPSD', 'Criterion not met'),
  ('MNIQIGELAKRTACPVVTIRFYEQEGLLPPPGRSRGNFRLYGEEHVERLQFIRCPRSLDMPLSLVRTLLSYRKRPDQDCGEVNMLLDEHIRQVESRIGALLELKHLCVELREACSGARPAQSCGILQGLSACVCATRGTTAHPSD', 'Criterion not met'),
  ('MNIQIGELAKRTACPVVTIRFYEQEGLLPPPGRSRGNFRLYGEEHVERLQFIRHCRSLDLPLSKVRTLLSYRKRPDQDCGEVNMLLDEHIRQVESRIGALLELIHHCVELREACSGARPAQSCGILQMLSDCVCDTRGTTAHPSD', 'Criterion met'),
  ('MNIQIGELAKRTACPVVTIRFYEQEGLLPPPGRSRGNFRLYGEEHVERLQFIRHCRSLDMNLSKVRTLLSYRKRPDQDCGEVNMLLDEHIRQVESRIGALLELRHHCVELREACSGARPAQSCGILQMLSDCVCDTRGTTAHPSD', 'Criterion met'),
  ('MNIQIGELAKRTACPVVTIRFYEQEGLLPPPGRSRGNFRLYGEEHVERLQFIRHCRSLDMPLSDVRTLLSYRKRPDQDCGEVNMLLDEHIRQVESRIGALLELRHHCVELREACSGARPAQSCGILQILSDCVCATRGTTAHKSD', 'Criterion met'),
  ('MNIQIGELAKRTACPVVTIRFYEQEGLLPPPGRSRGNFRLYGEEHVERLQFIRHCRSLDMPLSDVRTLLSYRKRPDQDCGEVTMLLDEHIRQVESRIGALLELKHHCVELREACSGARPAQSCGILQGLSACVCDTRGTTAHISD', 'Criterion met'),
  ('MNIQIGELAKRTACPVVTIRFYEQEGLLPPPGRSRGNFRLYGEEHVERLQFIRHCRSLDMPLSDVRTLLSYRKRPDQDCGEVSMLLDEHIRQVESRIGALLELKHHLVELREACSGARPAQSCGILQGLSACVCPTRGTTAHWSD', 'Criterion not met'),
  ('MNIQIGELAKRTACPVVTIRFYEQEGLLPPPGRSRGNFRLYGEEHVERLQFIRCPRSLDMPLSDVRTLLSYRKRPDQDCGEVNMLLDEHIRQVESRIGALLELKHLCVELREACSGARPAQSCGILQGLSACVCATRGTTAHPSD', 'Criterion not met'),
  ('MNIQIGELAKRTACPVVTIRFYEQEGLLPPPGRSRGNFRLYGEEHVERLQFIRHCRSLDLDLSKVRTLLSYRKRPDQDCGEVNMLLDEHIRQVESRIGALLELKHHCVELREACSGARPAQSCGILQMLSDCVCDTRGTTAHPSD', 'Criterion met');
